tested on: N4TG1 Neuroblastoma; assay: LD50 to tumor cells of various preparations of PI; format: cell-based; conditions: Mus musculus; 3 hours
readout_kind: IC50

[ask] # query: IC50 of entry CCCCC/C=C\C/C=C\CCCCCCC[14C](=O)O[C@H](COC(=O)CCCCCCCCCCCCCCC)COP(=O)(O)O[C@@H]1[C@H](O)[C@H](O)[C@@H](O)[C@H](O)[C@H]1O [([^14 C]linoleoyl)PI]
[reply] 25 µM

----------
test system: Human marrow CFV-GM; assay: Colony forming units of granulocytes and monocytes; assay type: cell-based; details: Monocyte, 192 h
readout_kind: pIC50
For clarity, pIC50 is expressed as the negative log10 of concentration in mol/L.

[ask] Fill in the recorded pIC50 for this compound, with Human marrow CFV-GM as test system: COc1cccc2c1C(=O)c1c(O)c3c(c(O)c1C2=O)C[C@@](O)(C(=O)CO)C[C@@H]3O[C@H]1C[C@H](N)[C@H](O)[C@H](C)O1
[reply] 7.10
